For each entry below, report its weight percentage that remained in solution value.
Experiment: Chemical stability in pharmaceutical solvents (weight % remaining in solution, LCMS)
Assay type: physicochemical
Conditions: H2O (pH = 7), 2 days
Description: Table 4 provides the chemical stability data in some pharmaceutical solvents, expressed as the weight percentage (% w/w) of the final fosfluconazole derivative produced and characterized in example 1 that remained in solution after a certain period of time. The test was carried out twice, and the remaining weight % was determined by Liquid Chromatography-Mass Spectrometry (LCMS). […]
Your answer should be a number followed by the unit of measure.

Given item CCCCCCCCCOP(=O)([O-])OC(Cn1cncn1)(Cn1cncn1)c1ccc(F)cc1F.[Na+] , the value recorded as its weight percentage that remained in solution is 99.2 % w/w

Given item CCCCCCCCCC(=O)OCCOP(=O)([O-])OC(Cn1cncn1)(Cn1cncn1)c1ccc(F)cc1F.[Na+] , the value recorded as its weight percentage that remained in solution is 98.0 % w/w

Given item CCCCCCCCCOCCOP(=O)([O-])OC(Cn1cncn1)(Cn1cncn1)c1ccc(F)cc1F.[Na+] , the value recorded as its weight percentage that remained in solution is 95.0 % w/w

Given item CCCCCCCCCC(=O)OCC(COP(=O)([O-])OC(Cn1cncn1)(Cn1cncn1)c1ccc(F)cc1F)OC(=O)CCCCCCCCC.[Na+] (centres unmarked) , the value recorded as its weight percentage that remained in solution is 95.5 % w/w

Given item C[N+](C)(C)CCOP(=O)([O-])OC(Cn1cncn1)(Cn1cncn1)c1ccc(F)cc1F , the value recorded as its weight percentage that remained in solution is 54.7 % w/w

Data provenance: patent US20120010173A1
